Origin of the recorded values: ChEMBL document CHEMBL2440076

For each record, write down the corresponding growth at 10 µM.
# System: U-251
# TEST SUMMARY: Growth inhibition of human U251 cells assessed as cell growth at 10 uM after 48 hrs by sulforhodamine B assay
# Assay type: functional
# TEST PARAMETERS: U-251, 48 h, read-out: Activity
One number for each entry, in %.

Observe how each entry below is paired with its result.
smiles_representation=Cc1cc(C(=O)Nc2cccc(-n3cc(-c4ccncc4)c(-c4ccc(Cl)c(O)c4)n3)c2)ccc1Br measured_result=92.1
smiles_representation=COc1cc(-c2nn(-c3cccc(NC(=O)Nc4ccccc4)c3)cc2-c2ccncc2)ccc1Cl measured_result=85
smiles_representation=O=C(Nc1cccc(-n2cc(-c3ccncc3)c(-c3ccc(Cl)c(O)c3)n2)c1)c1ccc(Cl)c(C(F)(F)F)c1 measured_result=95.9
smiles_representation=COc1cc(-c2nn(-c3cccc(NC(=O)c4ccccc4)c3)cc2-c2ccncc2)ccc1Cl measured_result=13.5
smiles_representation=O=C(Nc1cccc(-n2cc(-c3ccncc3)c(-c3ccc(Cl)c(O)c3)n2)c1)Nc1ccc(Cl)c(C(F)(F)F)c1 measured_result=-70.4

Give measured growth at 10 µM for every item shown.
1. COc1cc(-c2nn(-c3cccc(NC(=O)Nc4cccc(C(F)(F)F)c4)c3)cc2-c2ccncc2)ccc1Cl
2. COc1cc(-c2nn(-c3cccc(NC(=O)c4ccc(N5CCOCC5)c(C(F)(F)F)c4)c3)cc2-c2ccncc2)ccc1Cl

Completion:
-82.2
2.49
